# System: Escherichia coli TOP10
# assay.text: shrunken log2 fold change of peptide-encoding DNA abundance (4.5 h post-induction vs induction); higher = less antimicrobial activity (less host growth inhibition)
# condition.set: time post-induction: 4.5 h; library: site-saturation at positions 5, 18, 19, 20
measured.parameter: shrunken log2 fold change
Simply state the number, no unit and no words.

In: Which value of shrunken log2 fold change has been reported for "RRIRLRPPRLPRPRPRPRRPPRP" in the records?
Out: 0.39

In: Now consider "RRIRLRPPRLPRPRPRPMICPRP" and answer again.
Out: 0.13

In: Now consider "RRIRNRPPRLPRPRPRPYWGPRP" and answer again.
Out: 0.0237

In: Now consider "RRIRYRPPRLPRPRPRPIYHPRP" and answer again.
Out: -0.85

In: Now consider "RRIRCRPPRLPRPRPRPRQYPRP" and answer again.
Out: -0.15

----------
# Tested on: Escherichia coli TOP10
# assay.text: shrunken log2 fold change of peptide-encoding DNA abundance (4.5 h post-induction vs induction); higher = less antimicrobial activity (less host growth inhibition)
# condition.set: time post-induction: 4.5 h; library: site-saturation at positions 5, 18, 19, 20
measured.parameter: shrunken log2 fold change
Simply state the number, no unit and no words.

In: Which value of shrunken log2 fold change has been reported for "RRIRSRPPRLPRPRPRPLGHPRP" in the records?
Out: -0.051

In: Now consider "RRIRMRPPRLPRPRPRPRMSPRP" and answer again.
Out: 0.353

In: Now consider "RRIRPRPPRLPRPRPRPYDCPRP" and answer again.
Out: -0.021

In: Now consider "RRIRWRPPRLPRPRPRPKVNPRP" and answer again.
Out: 0.175

----------
# System: Escherichia coli TOP10;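 also: peptides expressed intracellularly from a pBAD plasmid library in pooled LB shake-flask culture, induced with 0.3% L-arabinose, DNA abundance read by NGS, three biological replicates, DESeq2 with apeglm shrinkage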
# assay.text: shrunken log2 fold change of peptide-encoding DNA abundance (4.5 h post-induction vs induction); higher = less antimicrobial activity (less host growth inhibition)
# condition.set: time post-induction: 4.5 h; library: site-saturation at positions 5, 18, 19, 20
measured.parameter: shrunken log2 fold change
Simply state the number, no unit and no words.

In: Which value of shrunken log2 fold change has been reported for "RRIRHRPPRLPRPRPRPTANPRP" in the records?
Out: 0.0557

In: Now consider "RRIRPRPPRLPRPRPRPNFGPRP" and answer again.
Out: 0.26

In: Now consider "RRIRMRPPRLPRPRPRPGNTPRP" and answer again.
Out: -0.246

In: Now consider "RRIRSRPPRLPRPRPRPSRCPRP" and answer again.
Out: -0.134

---
In: Which value of shrunken log2 fold change has been reported for "RRIRPRPPRLPRPRPRPNMDPRP" in the records?
Out: -0.674

In: Now consider "RRIRIRPPRLPRPRPRPCDTPRP" and answer again.
Out: -0.387

In: Now consider "RRIRGRPPRLPRPRPRPKTLPRP" and answer again.
Out: 0.872

In: Now consider "RRIRCRPPRLPRPRPRPRVRPRP" and answer again.
Out: 0.197

In: Now consider "RRIRNRPPRLPRPRPRPHVKPRP" and answer again.
Out: -0.17

In: Now consider "RRIRCRPPRLPRPRPRPPKFPRP" and answer again.
Out: -0.0746

In: Now consider "RRIRFRPPRLPRPRPRPMDDPRP" and answer again.
Out: -0.182

In: Now consider "RRIRIRPPRLPRPRPRPLDDPRP" and answer again.
Out: 0.0241

In: Now consider "RRIRQRPPRLPRPRPRPPSPPRP" and answer again.
Out: 0.426

In: Now consider "RRIRGRPPRLPRPRPRPSDAPRP" and answer again.
Out: 0.264

In: Now consider "RRIRSRPPRLPRPRPRPGEQPRP" and answer again.
Out: 0.00836

In: Now consider "RRIRHRPPRLPRPRPRPFCCPRP" and answer again.
Out: -0.0718

In: Now consider "RRIRSRPPRLPRPRPRPPCCPRP" and answer again.
Out: -0.107

In: Now consider "RRIRYRPPRLPRPRPRPREHPRP" and answer again.
Out: -0.00116

In: Now consider "RRIRRRPPRLPRPRPRPWHHPRP" and answer again.
Out: -0.242

In: Now consider "RRIRIRPPRLPRPRPRPYDPPRP" and answer again.
Out: -0.0306

In: Now consider "RRIRERPPRLPRPRPRPRAPPRP" and answer again.
Out: 0.524

In: Now consider "RRIRFRPPRLPRPRPRPNVNPRP" and answer again.
Out: -0.375

In: Now consider "RRIRIRPPRLPRPRPRPLRHPRP" and answer again.
Out: -0.172
